- testMethodNotes: self-splicing fitness, log relative to wild type (ln ratio); higher = more splicing; Tetrahymena group I intron in knt gene, E. coli kanamycin selection, DiMSum; sequences stand for … in CUCUCU…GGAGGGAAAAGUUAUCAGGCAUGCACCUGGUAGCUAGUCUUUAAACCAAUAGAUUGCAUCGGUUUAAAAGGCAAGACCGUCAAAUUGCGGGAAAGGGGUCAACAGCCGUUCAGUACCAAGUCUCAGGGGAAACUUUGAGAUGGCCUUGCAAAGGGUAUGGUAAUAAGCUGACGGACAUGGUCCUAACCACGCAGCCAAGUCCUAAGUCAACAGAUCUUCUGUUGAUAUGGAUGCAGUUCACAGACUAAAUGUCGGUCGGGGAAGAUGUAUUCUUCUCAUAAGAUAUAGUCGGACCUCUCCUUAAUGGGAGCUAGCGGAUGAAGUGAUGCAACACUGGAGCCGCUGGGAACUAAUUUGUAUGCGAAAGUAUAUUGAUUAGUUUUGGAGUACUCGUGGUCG;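 also: selection with 25 µg/mL kanamycin versus none on LB agar overnight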
- measurementContext: 37 °C
assayEndpoint: self-splicing fitness (ln)
Lab note: jot down the number only; don't add units.

Reference set (6 entries):
sequenceString | self-splicing fitness (ln)
CAACAGCAAUAUUACGAACA | -1.17
UCGCAGCAAUAUUACGAUCG | -0.359
GUCCAGCAAUAUUACGGAAA | 0.62
AACAAGCAAUAUUACGUAGU | -1.47
GCAAAGCAAUAUUACGAUUC | -0.245
CGGCAGCAAUAUUACGGACG | -2.42

Req: Fill in the blank: the reported self-splicing fitness (ln) of "ACACAGCAAUAUUACGUGAU" is ____.
Resp: -1.34

Req: Fill in the blank: the reported self-splicing fitness (ln) of "UCCGAGCAAUAUUACGGAUC" is ____.
Resp: -2.41

Req: Fill in the blank: the reported self-splicing fitness (ln) of "ACGAAGCAAUAUUACGGGCA" is ____.
Resp: -0.631

Req: Fill in the blank: the reported self-splicing fitness (ln) of "GCCUAGCAAUAUUACGCAUA" is ____.
Resp: -0.428

Req: Fill in the blank: the reported self-splicing fitness (ln) of "AAGGAGCAAUAUUACGCAUU" is ____.
Resp: -1.64

Req: Fill in the blank: the reported self-splicing fitness (ln) of "CCCGAGCAAUAUUACGUUAU" is ____.
Resp: -2.62

Req: Fill in the blank: the reported self-splicing fitness (ln) of "AGAAAGCAAUAUUACGAAAU" is ____.
Resp: -1.91

Req: Fill in the blank: the reported self-splicing fitness (ln) of "GCUGAGCAAUAUUACGUUCC" is ____.
Resp: -1.84

Req: Fill in the blank: the reported self-splicing fitness (ln) of "CCACAGCAAUAUUACGCUCU" is ____.
Resp: -2.1

Req: Fill in the blank: the reported self-splicing fitness (ln) of "UGACAGCAAUAUUACGGCUU" is ____.
Resp: -0.053

----------
- testMethodNotes: self-splicing fitness, log relative to wild type (ln ratio); higher = more splicing; Tetrahymena group I intron in knt gene, E. coli kanamycin selection, DiMSum; sequences stand for … in CUCUCU…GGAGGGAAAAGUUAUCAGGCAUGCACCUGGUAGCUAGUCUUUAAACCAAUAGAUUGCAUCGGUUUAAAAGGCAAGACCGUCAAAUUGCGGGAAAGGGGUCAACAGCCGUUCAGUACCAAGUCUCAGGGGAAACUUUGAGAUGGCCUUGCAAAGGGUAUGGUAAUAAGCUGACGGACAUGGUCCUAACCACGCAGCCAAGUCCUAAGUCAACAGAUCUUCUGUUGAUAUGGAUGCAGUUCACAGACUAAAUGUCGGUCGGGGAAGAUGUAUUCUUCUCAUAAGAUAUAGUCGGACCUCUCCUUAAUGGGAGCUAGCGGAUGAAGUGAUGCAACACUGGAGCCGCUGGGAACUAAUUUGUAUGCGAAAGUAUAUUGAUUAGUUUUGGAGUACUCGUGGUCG
- measurementContext: 30 °C
Consider the reported self-splicing fitness (ln) of an entry and match it to a band in label 0 = under -3, label 1 = from -3 up to -2, label 2 = -2 and over

sequenceString | classLabel
GUUUAGCAAUAUUACGGGGU | label 0
GGAUAGCAAUAUUACGCUCU | label 2
CACUAGCAAUAUUACGGGAA | label 1
UCAUAGCAAUAUUACGACGA | label 2
CAACAGCAAUAUUACGUCGU | label 0
CACUAGCAAUAUUACGCAGA | label 1

Consider the additional sequence presented here.
Req: GET /class?item= "CCUCAGCAAUAUUACGACAA"
Resp: label 2

----------
- testMethodNotes: self-splicing fitness, log relative to wild type (ln ratio); higher = more splicing; Tetrahymena group I intron in knt gene, E. coli kanamycin selection, DiMSum; sequences stand for … in CUCUCU…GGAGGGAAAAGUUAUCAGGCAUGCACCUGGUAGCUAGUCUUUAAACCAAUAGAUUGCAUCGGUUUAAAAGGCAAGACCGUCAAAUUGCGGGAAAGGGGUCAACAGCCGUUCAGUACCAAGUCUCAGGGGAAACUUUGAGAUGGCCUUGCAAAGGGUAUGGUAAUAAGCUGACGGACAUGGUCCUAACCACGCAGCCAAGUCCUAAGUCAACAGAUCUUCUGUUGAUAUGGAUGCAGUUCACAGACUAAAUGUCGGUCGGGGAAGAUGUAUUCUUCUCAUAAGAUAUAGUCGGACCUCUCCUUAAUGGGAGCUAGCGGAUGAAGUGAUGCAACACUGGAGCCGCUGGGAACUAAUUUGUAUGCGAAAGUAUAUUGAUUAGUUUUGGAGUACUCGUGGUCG
- measurementContext: 37 °C
assayEndpoint: self-splicing fitness (ln)

Req: Fill in the blank: the reported self-splicing fitness (ln) of "CCACAGCAAUAUUACGAGUU" is ____.
Resp: -2.76

----------
- testMethodNotes: self-splicing fitness, log relative to wild type (ln ratio); higher = more splicing; Tetrahymena group I intron in knt gene, E. coli kanamycin selection, DiMSum; sequences stand for … in CUCUCU…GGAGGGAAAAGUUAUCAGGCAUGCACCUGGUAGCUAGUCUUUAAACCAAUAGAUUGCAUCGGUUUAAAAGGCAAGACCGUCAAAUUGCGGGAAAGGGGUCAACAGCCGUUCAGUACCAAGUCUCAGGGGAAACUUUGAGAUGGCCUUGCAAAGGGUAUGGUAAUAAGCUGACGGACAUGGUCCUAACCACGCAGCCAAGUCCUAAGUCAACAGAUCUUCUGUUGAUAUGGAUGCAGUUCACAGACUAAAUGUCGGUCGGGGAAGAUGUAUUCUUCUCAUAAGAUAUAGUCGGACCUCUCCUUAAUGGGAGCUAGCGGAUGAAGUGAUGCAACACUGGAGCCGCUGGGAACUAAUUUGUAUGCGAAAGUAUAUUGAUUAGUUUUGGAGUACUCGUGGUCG
- measurementContext: 30 °C
assayEndpoint: self-splicing fitness (ln)
Lab note: jot down the number only; don't add units.

Reference set (6 entries):
sequenceString | readoutValue
UACCAGCAAUAUUACGUAGC | -2.38
UUUAAGCAAUAUUACGCAUU | -2.05
AUCGAGCAAUAUUACGGCAA | -2.19
UAUGAGCAAUAUUACGGAAA | -1.13
CGCCAGCAAUAUUACGGAAG | -1.44
GAGGAGCAAUAUUACGGAAU | -3.82

Req: Fill in the blank: the reported self-splicing fitness (ln) of "GGCAAGCAAUAUUACGGAGU" is ____.
Resp: -2.62

Req: Fill in the blank: the reported self-splicing fitness (ln) of "GCCAAGCAAUAUUACGAUAG" is ____.
Resp: -3.28

----------
- testMethodNotes: self-splicing fitness, log relative to wild type (ln ratio); higher = more splicing; Tetrahymena group I intron in knt gene, E. coli kanamycin selection, DiMSum; sequences stand for … in CUCUCU…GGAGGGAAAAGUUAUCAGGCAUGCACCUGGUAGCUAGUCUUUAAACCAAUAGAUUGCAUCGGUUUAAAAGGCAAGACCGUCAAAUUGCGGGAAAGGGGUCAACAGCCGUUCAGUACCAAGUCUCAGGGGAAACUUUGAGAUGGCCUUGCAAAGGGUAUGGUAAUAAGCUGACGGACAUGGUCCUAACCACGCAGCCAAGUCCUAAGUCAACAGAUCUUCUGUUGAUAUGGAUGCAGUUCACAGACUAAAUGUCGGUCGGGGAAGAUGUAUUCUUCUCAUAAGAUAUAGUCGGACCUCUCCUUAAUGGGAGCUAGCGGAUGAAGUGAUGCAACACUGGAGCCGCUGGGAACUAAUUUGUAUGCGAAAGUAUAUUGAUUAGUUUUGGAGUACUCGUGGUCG
- measurementContext: 37 °C
Everything with self-splicing fitness (ln) lower than -2 is no; everything else, including exactly -2, is yes.

Below are worked cases with known answers.
sequenceString | classLabel
UGAAAGCAAUAUUACGGGUC | no
GUUUAGCAAUAUUACGACGU | yes
CGAAAGCAAUAUUACGAGCU | yes
AUUUAGCAAUAUUACGCACG | yes
AAGGAGCAAUAUUACGCAAG | yes
CGUAAGCAAUAUUACGGUUA | yes

Req: // inclusive: self-splicing fitness (ln) at least -2? input: "UAGGAGCAAUAUUACGAUGU"
Resp: yes

Req: // inclusive: self-splicing fitness (ln) at least -2? input: "UGCCAGCAAUAUUACGAUGA"
Resp: yes

Req: // inclusive: self-splicing fitness (ln) at least -2? input: "CACAAGCAAUAUUACGGACG"
Resp: yes

Req: // inclusive: self-splicing fitness (ln) at least -2? input: "AUACAGCAAUAUUACGAUUG"
Resp: no

Req: // inclusive: self-splicing fitness (ln) at least -2? input: "GCCAAGCAAUAUUACGGACG"
Resp: yes

Req: // inclusive: self-splicing fitness (ln) at least -2? input: "UUCCAGCAAUAUUACGCGGG"
Resp: no

Req: // inclusive: self-splicing fitness (ln) at least -2? input: "UCCAAGCAAUAUUACGGGAA"
Resp: yes

Req: // inclusive: self-splicing fitness (ln) at least -2? input: "CCUUAGCAAUAUUACGGCAG"
Resp: no

Req: // inclusive: self-splicing fitness (ln) at least -2? input: "AUCCAGCAAUAUUACGAGAA"
Resp: yes
